assay: qHTS assay to test for compound auto fluorescence at 460 nm (blue) in HEK293 cell free culture (AID 720681); details: cell-free medium, autofluorescence 405/460 nm (blue); series mostly up to 46 µM
Calls of active or inactive are those of the source. Calls follow the shape of the dose curve; as a rule, active = well fitted curve in the direction sought with a large enough effect in the repeat runs; inconclusive = weak or mixed curves; inactive = flat fitted curve, though single readings scatter.
Choose the fitting class; nothing outside Y = active, N = inactive is accepted.

A selection of reference data follows.
compound	discrete label
CCOC(=O)c1c[nH]c2cc(OCC(C)C)c(OCC(C)C)cc2c1=O	N
CN1[C@@H]2CCC[C@H]1CC(NC(=O)c1nn(C)c3ccccc13)C2 (some centres not stated)	N
CCNC(=O)[C@@H]1CCCN1C(=O)[C@H](CCCN=C(N)N)NC(=O)[C@H](CC(C)C)NC(=O)[C@@H](CC(C)C)NC(=O)[C@H](Cc1ccc(O)cc1)NC(=O)[C@H](CO)NC(=O)[C@H](Cc1c[nH]c2ccccc12)NC(=O)[C@H](Cc1cnc[nH]1)NC(=O)[C@@H]1CCC(=O)N1	N
CN=C(NC)NCc1ccccc1	N
COC(=O)CCC[N+](C)(C)C	N
CO/N=C(\C(=O)N[C@@H]1C(=O)N2C(C(=O)O)=CCS[C@H]12)c1csc(N)n1	N

Which outcome was entered for the compound O=[n+]1ccn([O-])c2ccccc21 in this test?
N

Assay result, entry O=C(/C=C/c1cccc(F)c1)NC1CC1 — outcome?
N

Query: recorded result category for O=[N+]([O-])c1c(Cl)cccc1-c1c[nH]cc1Cl in this test
N

// return assay outcome for O=C(CCCN1CCC(C(=O)c2ccc(F)cc2)CC1)c1ccc(F)cc1
N

Assay result, entry CCCCCCCC(=O)CC[C@@H]1[C@@H](C/C=C\CCCC(=O)OC(C)C)[C@@H](O)C[C@H]1O — outcome?
N

====

assay: qHTS assay to identify small molecule antagonists of the glucocorticoid receptor (GR) signaling pathway - cell viability counter screen (AID 720693); details: GR-bla HeLa viability, CellTiter-Glo luminescence, 18 h, with 5 nM dexamethasone present; series mostly up to 58.5 µM; also: nearly all actives have a fitted effect of over 55% in size
Results filed as inconclusive are left out. Activity calls are given as the source filed them. The call rests on the fitted dose curve; in most records, active means well fitted cell-killing curve with a large enough effect in the repeat runs; inconclusive means weak or mixed curves, or effect the other way; inactive means no such curve, though single readings can be large or run the other way. Positions of bridges follow the written chain, without caps; N, C: chain ends. Non-standard residues stand in square brackets, D forms with d. Residues, ends and D or L forms follow the SMILES beside them. Orn = NCCC[C@H](N)C(=O)O; Mpa = O=C(O)CCS
API: response.call in True for active, False for inactive

Observe how each entry below is paired with its result.
compound	discrete label
CCCCCCCCCCCCCCCC(=O)OCC(COC(=O)CCCCCCCCCCCCCCC)OC(=O)CCCCCCCCCCCCCCC	False
CCOc1ccc(C[C@H]2NC(=O)CCSSC[C@@H](C(=O)N3CCC[C@H]3C(=O)N[C@@H](CCCN)C(=O)NCC(N)=O)NC(=O)[C@H](CC(N)=O)NC(=O)[C@H]([C@@H](C)O)NC(=O)[C@H]([C@@H](C)CC)NC2=O)cc1 ([Mpa][dY](Et)ITNCP[Orn]G-NH2; disulfide 1-6)	False
OC[C@H]1OC([S-])[C@H](O)[C@@H](O)[C@@H]1O.[Au+] (some centres not stated)	False

Please let me know the test result on file for Cc1ccccc1CNc1ncnc2c1ncn2[C@@H]1O[C@H](CO)[C@@H](O)[C@H]1O .
False

Could you check what this test reported for C[C@@](Cc1ccc(O)c(O)c1)(NN)C(=O)O ?
False

Name the outcome recorded for CCOc1ccc(N=C(C)Nc2ccc(OCC)cc2)cc1 in the assay.
False

I'd appreciate the recorded outcome for COc1ccc(C[C@H](N)C(=O)N[C@H]2[C@@H](O)[C@H](n3cnc4c(N(C)C)ncnc43)O[C@@H]2CO)cc1 from this test.
True

Given CS(=O)(=O)NC(=O)CCC/C=C\C[C@H]1C(=O)C[C@@H](O)[C@@H]1/C=C/[C@H](O)COc1ccccc1 , state the outcome it received in this test.
False

In this assay, the call recorded for CC(CN(C)C)CN1c2ccccc2S(=O)(=O)c2ccccc21 (configuration not stated) was what?
False

For this compound, state the assay outcome: CCNC(=O)[C@@H]1CCCN1C(=O)[C@H](CCCN=C(N)N)NC(=O)[C@H](CC(C)C)NC(=O)[C@@H](Cc1c[nH]c2ccccc12)NC(=O)[C@H](Cc1ccc(O)cc1)NC(=O)[C@H](CO)NC(=O)[C@H](Cc1c[nH]c2ccccc12)NC(=O)[C@H](Cc1cnc[nH]1)NC(=O)[C@@H]1CCC(=O)N1
True

Recorded test outcome, item CC1CCC(NC(=O)N(CCCl)N=O)CC1 (configuration not stated)
False

Outcome logged for O=C(Nc1ccc(Br)cc1)c1cc(Br)c(Br)s1 in this assay:
True
